# SYSTEM NAME: Protein cereblon/Bromodomain-containing protein 4 (Homo sapiens, UniProt O60885+Q96SW2)
# Sequence (Q96SW2 whole entry, looked up, other chains not shown): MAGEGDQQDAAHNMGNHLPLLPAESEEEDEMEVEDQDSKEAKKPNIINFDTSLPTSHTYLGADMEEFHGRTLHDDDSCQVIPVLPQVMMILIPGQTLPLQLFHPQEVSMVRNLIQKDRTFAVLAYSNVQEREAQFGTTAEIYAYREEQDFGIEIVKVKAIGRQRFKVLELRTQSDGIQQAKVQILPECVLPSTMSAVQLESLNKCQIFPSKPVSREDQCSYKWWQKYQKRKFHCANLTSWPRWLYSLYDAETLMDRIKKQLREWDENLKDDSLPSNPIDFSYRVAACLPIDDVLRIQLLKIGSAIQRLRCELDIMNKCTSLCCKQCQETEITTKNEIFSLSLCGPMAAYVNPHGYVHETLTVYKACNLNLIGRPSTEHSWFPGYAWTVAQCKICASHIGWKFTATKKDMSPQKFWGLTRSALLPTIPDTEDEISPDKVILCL
# PROTOCOL DETAILS: PROTAC activity at CRBN/Hibit-tagged BRD4 (unknown origin) expressed in HEK293 cells co-expressing LgBiT assessed as degradation rate incubated for 24 hrs by […] glo-max assay
# Assay type: cell-based
The reader will find reported Activity values listed item by item below.

>  <COMPOUND>
Cc1sc2c(c1C)C(c1ccc(Cl)cc1)=N[C@@H](CC(=O)N1CCC(CN3CCN(c4ccc5c(c4)C(=O)N(C4CCC(=O)NC4=O)C5=O)CC3)CC1)c1nnc(C)n1-2 (some centres undefined)

>  <Activity (fRLU/hr)>
0.204

$$$$
>  <COMPOUND>
Cc1sc2c(c1C)C(c1ccc(Cl)cc1)=N[C@@H](CC(=O)N1CCC(CN3CCN(c4ccc(N5CCC(=O)NC5=O)cc4)CC3)CC1)c1nnc(C)n1-2

>  <Activity (fRLU/hr)>
0.047

$$$$
>  <COMPOUND>
Cc1sc2c(c1C)C(c1ccc(Cl)cc1)=N[C@@H](CC(=O)N1CCC(CN3CCN(c4cc5c(cc4F)C(=O)N(C4CCC(=O)NC4=O)C5=O)CC3)CC1)c1nnc(C)n1-2 (some centres undefined)

>  <Activity (fRLU/hr)>
0.143

$$$$
>  <COMPOUND>
Cc1sc2c(c1C)C(c1ccc(Cl)cc1)=N[C@@H](CC(=O)NCCCOc1ccc(C3CCC(=O)NC3=O)cc1)c1nnc(C)n1-2 (some centres undefined)

>  <Activity (fRLU/hr)>
0.264

$$$$
>  <COMPOUND>
Cc1sc2c(c1C)C(c1ccc(Cl)cc1)=N[C@@H](CC(=O)N1CCC(CN3CCN(c4ccc(NC5CCC(=O)NC5=O)cc4)CC3)CC1)c1nnc(C)n1-2 (some centres undefined)

>  <Activity (fRLU/hr)>
0.036

$$$$
>  <COMPOUND>
Cc1sc2c(c1C)C(c1ccc(Cl)cc1)=N[C@@H](CC(=O)N1CCC(CN3CCN(c4ccc5c(c4)CN(C4CCC(=O)NC4=O)C5=O)CC3)CC1)c1nnc(C)n1-2 (some centres undefined)

>  <Activity (fRLU/hr)>
0.201

$$$$
>  <COMPOUND>
Cc1sc2c(c1C)C(c1ccc(Cl)cc1)=N[C@@H](CC(=O)N1CCN(c3ccc(C4CCC(=O)NC4=O)cc3)CC1)c1nnc(C)n1-2 (some centres undefined)

>  <Activity (fRLU/hr)>
0.005

$$$$
>  <COMPOUND>
Cc1sc2c(c1C)C(c1ccc(Cl)cc1)=N[C@@H](CC(=O)N1CCN(c3cccc(C4CCC(=O)NC4=O)c3)CC1)c1nnc(C)n1-2 (some centres undefined)

>  <Activity (fRLU/hr)>
0.005

$$$$
>  <COMPOUND>
Cc1sc2c(c1C)C(c1ccc(Cl)cc1)=N[C@@H](CC(=O)NCCc1ccc(C3CCC(=O)NC3=O)cc1)c1nnc(C)n1-2 (some centres undefined)

>  <Activity (fRLU/hr)>
0.733

$$$$
